# study system: Oxysterols receptor LXR-beta (Homo sapiens)
# Sequence (whole entry): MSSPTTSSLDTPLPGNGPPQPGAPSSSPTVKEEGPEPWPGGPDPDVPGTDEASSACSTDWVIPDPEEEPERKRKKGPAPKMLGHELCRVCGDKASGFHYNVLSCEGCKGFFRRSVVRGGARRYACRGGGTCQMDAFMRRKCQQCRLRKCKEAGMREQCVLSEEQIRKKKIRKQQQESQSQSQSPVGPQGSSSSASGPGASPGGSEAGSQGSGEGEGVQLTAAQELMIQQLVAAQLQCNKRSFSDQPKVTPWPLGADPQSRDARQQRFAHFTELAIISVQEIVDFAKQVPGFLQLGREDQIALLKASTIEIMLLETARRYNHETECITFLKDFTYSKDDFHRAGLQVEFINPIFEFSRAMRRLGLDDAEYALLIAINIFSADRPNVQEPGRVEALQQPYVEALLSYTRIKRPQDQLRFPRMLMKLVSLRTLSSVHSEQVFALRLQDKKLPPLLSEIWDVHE
# method summary: Agonist activity at GAL4 fused LXRbeta-LBD (unknown origin) transfected in CHOK1 cells at 10 uM after 24 hrs by luciferase reporter gene assay in presence of T0901317
# Assay type: cell-based
# condition summary: CHO-K1
readout name: Emax (%)

P. CCCc1cc(C(O)(C(F)(F)F)C(F)(F)F)ccc1Oc1ccc(C(=O)CN2C(=O)NC(C)(c3ccc(OC(C)C)cc3)C2=O)cc1 (configuration not stated)
Q. CCCc1cc(C(O)(C(F)(F)F)C(F)(F)F)ccc1Oc1ccc(C(=O)CN2C(=O)NC(C)(c3ccc(OC(C)C)cc3)C2=O)c(O)c1 (configuration not stated)
R. CCCc1cc(C(O)(C(F)(F)F)C(F)(F)F)ccc1Oc1ccc(CN2C(=O)NC(C)(c3ccc(OC(C)C)cc3)C2=O)cc1 (configuration not stated)
S. CCCc1cc(C(O)(C(F)(F)F)C(F)(F)F)cc(CCC)c1OC/C=C\CN1C(=O)NC(C)(c2ccc(OC(C)C)cc2)C1=O (configuration not stated)
Q: Reorder the records above by Emax so that values decrease. Field: ranking. Enter the labels in the order requested.
Ans: Q, P, R, S
(Q: 348%, P: 236%, R: 22%, S: 1%)

1. CCCc1cc(C(O)(C(F)(F)F)C(F)(F)F)ccc1Oc1ccc(C(O)CN2C(=O)NC(C)(c3ccc(OC(C)C)cc3)C2=O)cc1 (configuration not stated)
2. CCCc1cc(C(O)(C(F)(F)F)C(F)(F)F)ccc1Oc1ccc(C(=O)CN2C(=O)NC(C)(c3ccc(OC(C)C)cn3)C2=O)c(O)c1 (single isomer, unassigned; (+))
3. CCCc1cc(C(O)(C(F)(F)F)C(F)(F)F)ccc1Oc1cccc(CN2C(=O)NC(C)(c3ccc(OC(C)C)cc3)C2=O)c1 (configuration not stated)
Q: // smallest Emax at index 0, largest at the end To answer, write out the labels according to the requested order.
Ans: 1, 2, 3

====

# method summary: Cmax in mouse plasma at 10 mg/kg, po measured up to 24 hrs by HPLC-LC-MS/MS analysis
# Type: ADME, organism-based
# Design: dose 10 mg/kg, route oral
readout name: Cmax (ng/mL)
Your answer should be a plain number; it is taken to be in ng/mL.

Q: Entry under review: CCCc1cc(C(O)(C(F)(F)F)C(F)(F)F)ccc1Oc1ccc(C(=O)CN2C(=O)NC(C)(c3ccc(OC(C)C)cn3)C2=O)c(O)c1 (single isomer, unassigned; (-)) . Reported Cmax?
Ans: 503

====

# study system: UniProt P55055
# method summary: Agonist activity at GAL4 fused LXRbeta-LBD (unknown origin) transfected in CHOK1 cells after 24 hrs by luciferase reporter gene assay
pEC50: −log10 of the molar value.
readout name: pEC50

Examples with answers:
>>> obs_value("CCCc1cc(C(O)(C(F)(F)F)C(F)(F)F)ccc1Oc1cccc(CN2C(=O)NC(C)(c3ccc(OC(C)C)cc3)C2=O)c1 (configuration not stated)")
6.30
>>> obs_value("CCCc1cc(C(O)(C(F)(F)F)C(F)(F)F)ccc1Oc1ccc(CCN2C(=O)NC(C)(c3ccc(OC(C)C)cc3)C2=O)c(O)c1 (configuration not stated)")
5.54
>>> obs_value("CCCc1cc(C(O)(C(F)(F)F)C(F)(F)F)ccc1Oc1ccc(C(=O)CN2C(=O)NC(C)(c3ccc(OC(C)C)cn3)C2=O)c(O)c1 (racemic)")
7.24
>>> obs_value("CCCc1cc(C(O)(C(F)(F)F)C(F)(F)F)ccc1Oc1ccc(CN2C(=O)NC(C)(c3ccc(OC(C)C)cc3)C2=O)cc1 (configuration not stated)")
5.74
>>> obs_value("CCCc1cc(C(O)(C(F)(F)F)C(F)(F)F)ccc1Oc1ccc(C(=O)CN2C(=O)NC(C)(c3ccc(OC(C)C)cc3)C2=O)c(O)c1 (configuration not stated)")
6.96

P. CCCc1cc(C(O)(C(F)(F)F)C(F)(F)F)ccc1Oc1ccc(CCN2C(=O)NC(C)(c3ccc(OC(C)C)cc3)C2=O)cc1 (configuration not stated)
Q. CCCc1cc(C(O)(C(F)(F)F)C(F)(F)F)ccc1Oc1ccc(C(=O)CN2C(=O)NC(C)(c3ccc(OC(C)C)cc3)C2=O)c(OC)c1 (configuration not stated)
Q: Hi! Which is lower in terms of pEC50, the first one P or the second one Q ? Respond with the label that goes with your answer.
Ans: P

====

# Test system: CHO-K1
# method summary: Selectivity ratio of EC50 for GAL4 fused LXRalpha (unknown origin) transfected in CHOK1 cells to EC50 for GAL4 fused LXRbeta-LBD (unknown origin) transfected in CHOK1 cells
# Assay type: cell-based
# condition summary: Homo sapiens
Reported Ratio EC50 values follow for various compounds
Form rule: numeric answer, no unit written next to it.

Before answering, review these 3 worked examples.
>>> obs_value("CCCc1cc(C(O)(C(F)(F)F)C(F)(F)F)ccc1Oc1ccc(C(=O)CN2C(=O)NC(C)(c3ccc(OC(C)C)cc3)C2=O)c(C)c1 (centres undefined)")
6.25
>>> obs_value("CCCc1cc(C(O)(C(F)(F)F)C(F)(F)F)ccc1Oc1ccc(CCN2C(=O)NC(C)(c3ccc(OC(C)C)cc3)C2=O)c(O)c1 (centres undefined)")
3.48
>>> obs_value("CCCc1cc(C(O)(C(F)(F)F)C(F)(F)F)ccc1Oc1cccc(CN2C(=O)NC(C)(c3ccc(OC(C)C)cc3)C2=O)c1 (centres undefined)")
3.92

Here's the next entry for you.
Q: Reported Ratio EC50 for CHO-K1, given CCCc1cc(C(O)(C(F)(F)F)C(F)(F)F)ccc1Oc1ccc(C(=O)CN2C(=O)NC(C)(c3ccc(OC(C)C)cc3)C2=O)cc1 (centres undefined) ?
Ans: 3

====

# method summary: Intrinsic clearance in hamster liver microsomes at 1 umol/L
# Format: ADME
# condition summary: cricetinae, read-out: CLH
readout name: microsomal CLint at 1 µM (µL/min/mg)

I. CCCc1cc(C(O)(C(F)(F)F)C(F)(F)F)ccc1Oc1ccc(C(=O)CN2C(=O)NC(C)(c3ccc(OC(C)C)cn3)C2=O)c(O)c1 (racemic)
II. CCCc1cc(C(O)(C(F)(F)F)C(F)(F)F)ccc1Oc1ccc(C(=O)CN2C(=O)NC(C)(c3ccc(OC(C)C)cc3)C2=O)c(O)c1 (configuration not stated)
Q: Identify the item whose microsomal CLint at 1 µM is the smaller number: I or II Mark your selection by writing its label.
Ans: I
(I: 11 µL/min/mg, II: 27 µL/min/mg)

====

# study system: Oxysterols receptor LXR-alpha (Homo sapiens) (UniProt Q13133)
# Sequence (Q13133 whole entry, the tested form may be a part): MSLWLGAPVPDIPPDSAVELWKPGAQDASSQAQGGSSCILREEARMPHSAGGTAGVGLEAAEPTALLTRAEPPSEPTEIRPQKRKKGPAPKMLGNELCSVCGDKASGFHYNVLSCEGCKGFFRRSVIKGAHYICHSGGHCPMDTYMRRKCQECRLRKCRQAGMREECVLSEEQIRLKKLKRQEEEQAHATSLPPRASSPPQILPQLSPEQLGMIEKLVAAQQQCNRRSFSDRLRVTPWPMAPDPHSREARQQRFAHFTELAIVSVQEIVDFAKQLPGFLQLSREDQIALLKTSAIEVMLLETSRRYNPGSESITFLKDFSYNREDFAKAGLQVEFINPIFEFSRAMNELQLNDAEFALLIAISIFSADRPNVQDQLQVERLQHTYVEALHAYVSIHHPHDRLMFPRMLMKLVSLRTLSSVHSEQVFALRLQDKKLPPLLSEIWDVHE
# method summary: Agonist activity at GAL4 fused LXRalpha (unknown origin) transfected in CHOK1 cells at 10 uM after 24 hrs by luciferase reporter gene assay in presence of T0901317
# Format: cell-based
# condition summary: CHO-K1
readout name: Emax (%)

Answered cases to consult:
>>> obs_value("CCCc1cc(C(O)(C(F)(F)F)C(F)(F)F)cc(CCC)c1OC/C=C\\CN1C(=O)NC(C)(c2ccc(OC(C)C)cc2)C1=O (stereo not drawn)")
0
>>> obs_value("CCCc1cc(C(O)(C(F)(F)F)C(F)(F)F)ccc1Oc1ccc(C(O)CN2C(=O)NC(C)(c3ccc(OC(C)C)cc3)C2=O)cc1 (stereo not drawn)")
5
>>> obs_value("CCCc1cc(C(O)(C(F)(F)F)C(F)(F)F)ccc1Oc1ccc(C(=O)CN2C(=O)NC(C)(c3ccc(OC(C)C)cc3)C2=O)c(OC)c1 (stereo not drawn)")
38

A. CCCc1cc(C(O)(C(F)(F)F)C(F)(F)F)ccc1Oc1ccc(C(=O)CN2C(=O)NC(C)(c3ccc(OC(C)C)cn3)C2=O)c(O)c1 (single isomer, unassigned; (+))
B. CCCc1cc(C(O)(C(F)(F)F)C(F)(F)F)ccc1Oc1ccc(CCN2C(=O)NC(C)(c3ccc(OC(C)C)cc3)C2=O)cc1 (stereo not drawn)
Q: Smaller Emax value, A vs B ? Please respond with the label that marks your chosen entry.
Ans: B
(B: 1%, A: 25%)

====

# study system: Oxysterols receptor LXR-beta (Homo sapiens, UniProt P55055)
# method summary: Agonist activity at GAL4 fused LXRbeta-LBD (unknown origin) transfected in CHOK1 cells after 24 hrs by luciferase reporter gene assay
pEC50: −log10 of the molar value.
readout name: pEC50

Below are worked cases with known answers.
>>> obs_value("CCCc1cc(C(O)(C(F)(F)F)C(F)(F)F)ccc1Oc1ccc(CCN2C(=O)NC(C)(c3ccc(OC(C)C)cc3)C2=O)c(C)c1 (stereo not given)")
6.15
>>> obs_value("CCCc1cc(C(O)(C(F)(F)F)C(F)(F)F)ccc1Oc1ccc(CCN2C(=O)NC(C)(c3ccc(OC(C)C)cc3)C2=O)c(OC)c1 (stereo not given)")
5.78
>>> obs_value("CCCc1cc(C(O)(C(F)(F)F)C(F)(F)F)ccc1Oc1ccc(C(=O)CN2C(=O)NC(C)(c3ccc(OC(C)C)cn3)C2=O)c(O)c1 (single isomer, unassigned; (-))")
8.15

I. CCCc1cc(C(O)(C(F)(F)F)C(F)(F)F)ccc1Oc1ccc(C(O)CN2C(=O)NC(C)(c3ccc(OC(C)C)cc3)C2=O)cc1 (stereo not given)
II. CCCc1cc(C(O)(C(F)(F)F)C(F)(F)F)cc(CCC)c1OCC#CCN1C(=O)NC(C)(c2ccc(OC(C)C)cc2)C1=O (stereo not given)
Q: Param pair: I , II . Output: the one whose pEC50 is numerically greater. Could you answer with the label of the item you picked?
Ans: II

A. CCCc1cc(C(O)(C(F)(F)F)C(F)(F)F)cc(CCC)c1OC/C=C/CN1C(=O)NC(C)(c2ccc(OC(C)C)cc2)C1=O (stereo not given)
B. CCCc1cc(C(O)(C(F)(F)F)C(F)(F)F)ccc1Oc1ccc(C(=O)CN2C(=O)NC(C)(c3ccc(OC(C)C)cn3)C2=O)c(O)c1 (single isomer, unassigned; (+))
C. CCCc1cc(C(O)(C(F)(F)F)C(F)(F)F)ccc1Oc1ccc(C(=O)CN2C(=O)NC(C)(c3ccc(OC(C)C)cc3)C2=O)cc1 (stereo not given)
Q: Rank the items in ascending order with respect to pEC50. Please respond by ranking the labels in the order requested.
Ans: B, A, C

These measurements were taken from ChEMBL document CHEMBL3813680.
